Molecular target: isolated recombinant JAK2 kinase domain (Homo sapiens (Human))
Sequence (O60674 849-1124): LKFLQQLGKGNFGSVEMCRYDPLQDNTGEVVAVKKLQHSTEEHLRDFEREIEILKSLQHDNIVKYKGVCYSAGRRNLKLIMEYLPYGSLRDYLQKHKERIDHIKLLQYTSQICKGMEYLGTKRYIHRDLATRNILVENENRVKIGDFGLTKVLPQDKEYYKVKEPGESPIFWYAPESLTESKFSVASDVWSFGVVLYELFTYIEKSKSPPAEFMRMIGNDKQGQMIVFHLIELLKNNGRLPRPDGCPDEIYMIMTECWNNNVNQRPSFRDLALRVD
Assay: JAK2 enzyme assay (Caliper LabChip, Ki)
Each entry falls in a class defined on Ki; the bands are range A: < 10 nM; range B: ≥ 10 nM and < 50 nM; range C: ≥ 50 nM

// below: answered molecules
Molecule	Assayed target	Group label
N#CCC1(n2cc(C(N)=O)c(NC(=O)C3CC3)n2)CCN(Cc2cccc(I)c2)CC1 [Example 54]	isolated recombinant JAK2 kinase domain (Homo sapiens (Human))	range C
N#CCC1(n2cc(C(N)=O)c(NC(=O)C3CC3)n2)CCN(Cc2cccc(CN)c2)CC1 [Example 97]	isolated recombinant JAK2 kinase domain (Homo sapiens (Human))	range C
N#CCC1(n2cc(C(N)=O)c(NC(=O)C3CC3)n2)CCN(Cc2ccc(Br)c(F)c2)CC1 [Example 77]	isolated recombinant JAK2 kinase domain (Homo sapiens (Human))	range B
N#CCC1(n2cc(C(N)=O)c(NC(=O)C3CC3)n2)CCN(Cc2ccccc2)CC1 [Example 40]	isolated recombinant JAK2 kinase domain (Homo sapiens (Human))	range C
COC(=O)Nc1nn(C2(CC#N)CCN(Cc3cc(O)c(-c4ccc(C)o4)cc3F)CC2F)cc1C(N)=O (stereo not shown) [Example 256]	isolated recombinant JAK2 kinase domain (Homo sapiens (Human))	range A

Field: class (Ki) — entry: N#CC[C@]1(n2cc(C(N)=O)c(NC(=O)C3CC3)n2)CC[C@@H](NCc2ccc(F)cc2)CC1 [Example 116]
range C

Field: class (Ki) — entry: Cc1cc(CN2CCC(CC#N)(n3cc(C(N)=O)c(NC(=O)C4CC4)n3)CC2)ccc1-c1ccccc1 [Example 160]
range B
